Ref: the supplement of paper PMC10567573

B1: OR3A1 (parent)
chain: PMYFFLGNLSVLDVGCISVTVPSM

- Variants of: B1
- Assay text: protein stability index of a GFP-peptide fusion (GPS, HEK-293T) (PSI 1-6); higher = more stable;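 also: lentivirally expressed fusions sorted by FACS into six bins by GFP to DsRed ratio, PSI derived from sequencing read proportions per bin multiplied by bin number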
- Stated conditions: c terminus: a fixed tail appended
Reported protein stability index values for a set of variants
Note: the reply should be a number with no unit written.

Given PMYFFLGNLSVLDVGCINVTVPSM [S18N] , state its recorded protein stability index.
3.31

Can you check PMYFFLGNLSVLDVGCISWTVPSM [V19W] next?
1.96

Can you check PMYFFLGNLSVLDVGCISVTVPKM [S23K] next?
2.42

Can you check PMYFFLGNLSVLDVGCISVTMPSM [V21M] next?
2.58

Can you check PMYFFLGNLSVLDVGCIGVTVPSM [S18G] next?
2.33
